Value source: patent US20110207726A1

- testSystem: human liver cathepsin L (Homo sapiens, UniProt P07711)
- Construct: 8.7 ng/mL human liver cathepsin L (Calbiochem 219402); purchased Calbiochem 219402; host or cells: human liver
- Sequence (P07711 114-288 limits assumed): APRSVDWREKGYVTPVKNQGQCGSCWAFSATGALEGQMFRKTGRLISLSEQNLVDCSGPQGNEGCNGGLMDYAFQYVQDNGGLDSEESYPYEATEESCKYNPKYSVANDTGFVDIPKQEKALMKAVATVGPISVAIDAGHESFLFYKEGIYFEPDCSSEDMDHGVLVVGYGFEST
- Sequence (P07711 292-333 limits assumed): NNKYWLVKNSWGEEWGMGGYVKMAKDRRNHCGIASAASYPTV
- protocolText: Cathepsin L assay, IC50 determination
- Assay type: biochemical
- conditionSummary: Table 1; read-out: IC50 Cat L
assayEndpoint: pIC50
Keep it numeric: pIC50 is minus log10 of the concentration in mol/L.

Would you please look over these solved cases?
| compound | pIC50 |
| --- | --- |
| CCc1ccccc1NC(=O)CSC(=O)NNC(=O)[C@H](CC(C)C)NC(=O)OC(C)(C)C [Compound No. 29] | 5.96 |
| CC(C)(C)OC(=O)N[C@@H](Cc1c[nH]c2ccccc12)C(=O)NNC(=O)SCC(=O)N1CCc2ccccc2C1 [Compound No. 12] | 7.72 |

The measured pIC50 associated with CCOC(=O)c1ccc(NC(=O)CSC(=O)NNC(=O)[C@H](Cc2ccc(OCc3ccccc3)cc2)NC(=O)OC(C)(C)C)cc1 [Compound No. 43] reads 6.85

The measured pIC50 associated with CC(C)[C@H](NC(=O)OC(C)(C)C)C(=O)NNC(=O)SCC(=O)N1CCCc2ccccc21 [Compound No. 22] reads 6.17

The measured pIC50 associated with CCc1ccccc1NC(=O)CSC(=O)NNC(=O)[C@@H](NC(=O)OC(C)(C)C)C(C)C [Compound No. 21] reads 6.18

====

- testSystem: human liver cathepsin L (Homo sapiens, UniProt P07711)
- Construct: 8.7 ng/mL human liver cathepsin L (Calbiochem 219402); purchased Calbiochem 219402; host or cells: human liver
- protocolText: Cathepsin L assay, IC50 determination
- Type: biochemical
- conditionSummary: read-out: IC50 against cathepsin L
assayEndpoint: IC50 (µM)
Reply numerically in µM, unit not repeated.

The measured IC50 associated with CCc1ccccc1NC(=O)CSC(=O)NNC(=O)[C@@H](Cc1c[nH]c2ccccc12)NC(=O)OC(C)(C)C [R-enantiomer of Compound No. 1] reads 34

====

- testSystem: human liver cathepsin L (Homo sapiens, UniProt P07711)
- Construct: 8.7 ng/mL human liver cathepsin L (Calbiochem 219402); purchased Calbiochem 219402; host or cells: human liver
- protocolText: Cathepsin L assay, IC50 determination
- Type: biochemical
- conditionSummary: Table 1; read-out: IC50 Cat L
# note: exactly 1000 nM is not below, so it is False; use True for IC50 strictly under it

Past entries and their recorded results:
| compound | answerLabel |
| --- | --- |
| CCc1ccccc1NC(=O)CSC(=O)NNC(=O)[C@H](COCc1ccccc1)NC(=O)OC(C)(C)C [Compound No. 46] | False |
| CC(C)[C@H](NC(=O)OC(C)(C)C)C(=O)NNC(=O)SCC(=O)Nc1ccc2c(c1)CCCC2 [Compound No. 24] | True |
| CCOC(=O)c1ccc(NC(=O)CSC(=O)NNC(=O)[C@H](Cc2c[nH]c3ccccc23)NC(=O)OC(C)(C)C)cc1 [Compound No. 9] | True |
| CCc1ccccc1NC(=O)CSC(=O)NNC(=O)C[C@@H](COCc1ccccc1)NC(=O)OC(C)(C)C [Compound No. 84] | False |
| CC(C)(C)OC(=O)N[C@@H](Cc1c[nH]c2ccccc12)C(=O)NNC(=O)SCC(=O)N1CCOc2ccccc21 [Compound No. 10] | True |
| CCc1ccccc1NC(=O)CSC(=O)NNC(=O)[C@H](C)NC(=O)OC(C)(C)C [Compound No. 25] | False |
| CC(C)(C)OC(=O)N1CCC[C@H]1CC(=O)NNC(=O)SCC(=O)N1CCCc2ccccc21 [Compound No. 81] | False |
| CC(C)(C)OC(=O)N[C@@H](COCc1ccccc1)C(=O)NNC(=O)SCC(=O)NCCc1c[nH]c2ccccc12 [Compound No. 53] | True |

Ask | Input CC(C)(C)OC(=O)N1CCC[C@H]1C(=O)NNC(=O)SCC(=O)N1CCCc2ccccc21 [Compound No. 33] ; condition: IC50 strictly below 1000 nM. Does it hold?
Reply | False

Ask | Input CC(C)(C)OC(=O)N[C@@H](Cc1ccc(OCc2ccccc2)cc1)C(=O)NNC(=O)SCC(=O)N1CCOc2ccccc21 [Compound No. 41] ; condition: IC50 strictly below 1000 nM. Does it hold?
Reply | False

====

Listed next: entries and their corresponding pIC50.
- testSystem: Human spleen cathepsin S (Homo sapiens)
- Construct: Human spleen cathepsin S (Calbiochem 219344, 40 ng/mL); purchased Calbiochem 219344; host or cells: human spleen
- Sequence (P25774 115-331): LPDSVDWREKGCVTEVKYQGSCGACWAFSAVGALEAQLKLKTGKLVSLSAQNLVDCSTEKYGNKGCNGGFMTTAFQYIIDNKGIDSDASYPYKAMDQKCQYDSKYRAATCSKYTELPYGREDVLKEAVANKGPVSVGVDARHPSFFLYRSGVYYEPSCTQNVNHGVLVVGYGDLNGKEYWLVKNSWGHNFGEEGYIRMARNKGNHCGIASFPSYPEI
- protocolText: Cathepsin S assay, IC50 determination
- Type: biochemical
- conditionSummary: Tables 2-11; read-out: Cat S
pIC50: −log10 of the molar value.

| compound | pIC50 |
| --- | --- |
| CC(C)(C)OC(=O)N[C@@H](Cc1c[nH]c2ccccc12)C(=O)N/N=C/c1ccc(Cl)cc1 [Compound No. 124] | ≤ 4.60 |

For the next question, use this compound.
The measured pIC50 associated with CC(C)(C)OC(=O)N[C@@H](Cc1c[nH]c2ccccc12)C(=O)NNC(=O)CCC(=O)N1CCCc2ccccc21 [Compound No. 115] reads ≤ 4.60

====

- testSystem: human cathepsin L (Homo sapiens)
- Sequence (P07711 114-288 limits assumed): as the sequence (P07711 114-288 limits assumed) above
- Sequence (P07711 292-333 limits assumed): as the sequence (P07711 292-333 limits assumed) above
- protocolText: Preincubation studies, cathepsin L
- Type: biochemical
- Set-up: 8.7 ng/mL human liver cathepsin L (Calbiochem 219402); purchased Calbiochem 219402; host or cells: human liver
- conditionSummary: IC50 against human cathepsin L after 1 hour preincubation, preincubation with enzyme 1 h prior to substrate addition
assayEndpoint: IC50 (nM)
Reply numerically in nM, unit not repeated.

The measured IC50 associated with CCc1ccccc1NC(=O)CSC(=O)NNC(=O)[C@H](Cc1c[nH]c2ccccc12)NC(=O)OC(C)(C)C [Compound No. 1] reads 7.5

====

- testSystem: human liver cathepsin L (Homo sapiens, UniProt P07711)
- Construct: 8.7 ng/mL human liver cathepsin L (Calbiochem 219402); purchased Calbiochem 219402; host or cells: human liver
- protocolText: Cathepsin L assay, IC50 determination
- Format: biochemical
- conditionSummary: Tables 2-11; read-out: Cat L
pIC50: −log10 of the molar value.
assayEndpoint: pIC50

| molSmiles | endpointResult |
| --- | --- |
| CC(C)(C)OC(=O)N[C@@H](Cc1c[nH]c2ccccc12)C(=O)NNC(=O)CCC(=O)N1CCCc2ccccc21 | ≤ 4.60 |
| CCOC(=O)NNC(=O)[C@H](Cc1c[nH]c2ccccc12)NC(=O)OC(C)(C)C | ≤ 4.60 |
| O=C(CCc1c[nH]c2ccccc12)NNC(=O)CCc1c[nH]c2ccccc12 | ≤ 4.60 |

For the next question, use this compound.
The measured pIC50 associated with CSCC[C@H](NC(=O)OC(C)(C)C)C(=O)NNC(=O)c1ccccc1 reads ≤ 4.60

====

- testSystem: Human neutrophil cathepsin G (Homo sapiens)
- Construct: Human neutrophil cathepsin G (Calbiochem 219373, 4.2 μg/mL); purchased Calbiochem 219373; host or cells: human neutrophils
- Sequence (P08311 21-243 limits assumed): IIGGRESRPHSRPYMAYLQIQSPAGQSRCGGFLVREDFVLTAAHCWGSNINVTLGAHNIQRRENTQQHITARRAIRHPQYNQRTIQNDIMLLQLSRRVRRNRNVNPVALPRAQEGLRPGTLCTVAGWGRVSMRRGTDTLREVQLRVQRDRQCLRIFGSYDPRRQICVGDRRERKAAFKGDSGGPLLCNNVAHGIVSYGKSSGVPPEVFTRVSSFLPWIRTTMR
- protocolText: Selectivity assay, cathepsin G
- Assay type: biochemical
- conditionSummary: Cathepsin G, human neutrophil; no preincubation; 10 min
pIC50: −log10 of the molar value.
assayEndpoint: pIC50

The measured pIC50 associated with CCc1ccccc1NC(=O)CSC(=O)NNC(=O)[C@H](Cc1c[nH]c2ccccc12)NC(=O)OC(C)(C)C [Compound No. 1] reads < 4.30

====

- testSystem: Human liver cathepsin B (Homo sapiens, UniProt P07858)
- Construct: Human liver cathepsin B (Calbiochem 219362, 65 ng/mL); purchased Calbiochem 219362; host or cells: human liver
- protocolText: Cathepsin B assay, IC50 determination
- Type: biochemical
- conditionSummary: Table 1; read-out: IC50 Cat B
pIC50: −log10 of the molar value.
Listed next: entries and their corresponding pIC50.

Would you please look over these solved cases?
| compound | endpointResult |
| --- | --- |
| CC(C)[C@@H](CC(=O)NNC(=O)SCC(=O)N1CCCc2ccccc21)NC(=O)OC(C)(C)C [Compound No. 79] | 4.80 |
| CC(C)(C)OC(=O)N[C@@H](CCC(=O)NC1c2ccccc2Oc2ccccc21)C(=O)NNC(=O)SCC(=O)N1CCCc2ccccc21 [Compound No. 60] | < 4.60 |
| CCc1ccccc1NC(=O)CSC(=O)NNC(=O)[C@H](CCCNC(=N)N[N+](=O)[O-])NC(=O)OC(C)(C)C [Compound No. 62] | < 4.60 |

For the next question, use this compound.
The measured pIC50 associated with CCOC(=O)c1cccc(NC(=O)CSC(=O)NNC(=O)[C@H](Cc2c[nH]c3ccccc23)NC(=O)OC(C)(C)C)c1 [Compound No. 8] reads < 4.60

====

- testSystem: human liver cathepsin L (Homo sapiens)
- Construct: 8.7 ng/mL human liver cathepsin L (Calbiochem 219402); purchased Calbiochem 219402; host or cells: human liver
- protocolText: Cathepsin L assay, IC50 determination
- Type: biochemical
- conditionSummary: Table 17; n = 3; C, S or O at the sulfur position; read-out: Cathepsin L inhibitory activity IC50
Listed next: entries and their corresponding IC50.
Reply numerically in nM, unit not repeated.

Would you please look over these solved cases?
| compound | testSystem | unitSpec | IC50 |
| --- | --- | --- | --- |
| CCc1ccccc1NC(=O)CSC(=O)NNC(=O)[C@H](Cc1c[nH]c2ccccc12)NC(=O)OC(C)(C)C [Compound No. 1] | human liver cathepsin L (Homo sapiens) | nM | 56 |
| CCc1ccccc1NC(=O)COC(=O)NNC(=O)C(Cc1c[nH]c2ccccc12)NC(=O)OC(C)(C)C (stereo not drawn) [2-ethylanilide O] | human liver cathepsin L (Homo sapiens) | nM | 28 |

For the next question, use this compound.
The measured IC50 associated with CC(C)(C)OC(=O)NC(Cc1c[nH]c2ccccc12)C(=O)NNC(=O)SCC(=O)N1CCCc2ccccc21 (stereo not drawn) [Tetrahydroquinoline S] reads 41
